test system: Staphylococcus epidermidis; test: Antibacterial activity against Staphylococcus epidermidis ATCC 12228 after 18 to 24 hrs by agar dilution method; assay type: functional
So basically: is MIC under 2 µg/mL? Then Satisfied. Not under? Then Not satisfied.

                                   compound          class
0  CCO/N=C1/CCN(c2c(F)cc3c(=O)c(C(=O)O)cn(CC)c3c2F)CC1(C)CN (configuration not stated)  Not satisfied
1  CO/N=C1/CCN(c2c(F)cc3c(=O)c(C(=O)O)cn(C4CC4)c3c2F)CC1(C)CN (configuration not stated)      Satisfied
2  CCO/N=C1/CCN(c2c(F)cc3c(=O)c(C(=O)O)cn(CCF)c3c2F)CC1(C)CN (configuration not stated)  Not satisfied
3  CO/N=C1/CCN(c2c(F)cc3c(=O)c(C(=O)O)cn(CCF)c3c2F)CC1(C)CN (configuration not stated)  Not satisfied
4  C[C@H]1COc2c(N3CCN(C)CC3)c(F)cc3c(=O)c(C(=O)O)cn1c23.C[C@H]1COc2c(N3CCN(C)CC3)c(F)cc3c(=O)c(C(=O)O)cn1c23.O      Satisfied
5  CO/N=C1/CCN(c2nc3c(cc2F)c(=O)c(C(=O)O)cn3C2CC2)CC1(C)CN (configuration not stated)      Satisfied
6  CCO/N=C1/CCN(c2c(F)cc3c(=O)c(C(=O)O)cn(C4CC4)c3c2F)CC1(C)CN (configuration not stated)      Satisfied
7  CCO/N=C1/CCN(c2nc3c(cc2F)c(=O)c(C(=O)O)cn3-c2ccc(F)cc2F)CC1(C)CN (configuration not stated)  Not satisfied
8  CCO/N=C1/CCN(c2nc3c(cc2F)c(=O)c(C(=O)O)cn3C2CC2)CC1(C)CN (configuration not stated)      Satisfied

* * *

system: Klebsiella pneumoniae; experiment: Antibacterial activity against Klebsiella pneumoniae 7 after 18 to 24 hrs by agar dilution method; assay type: functional
reported.metric: MIC (µg/mL)

>>> print(df.to_string())
                                   compound  reading
0  CO/N=C1/CCN(c2nc3c(cc2F)c(=O)c(C(=O)O)cn3-c2ccc(F)cc2F)CC1(C)CN (stereo not given)      128
1  CCO/N=C1/CCN(c2c(F)cc3c(=O)c(C(=O)O)cn(CCF)c3c2F)CC1(C)CN (stereo not given)       64
2  CCO/N=C1/CCN(c2nc3c(cc2F)c(=O)c(C(=O)O)cn3C2CC2)CC1(C)CN (stereo not given)        1
3  CCO/N=C1/CCN(c2c(F)cc3c(=O)c(C(=O)O)cn(C4CC4)c3c2F)CC1(C)CN (stereo not given)        2
4  CCO/N=C1/CCN(c2c(F)cc3c(=O)c(C(=O)O)cn(CC)c3c2F)CC1(C)CN (stereo not given)       16
5  CO/N=C1/CCN(c2c(F)cc3c(=O)c(C(=O)O)cn4c3c2OC[C@@H]4C)CC1(C)CN (stereo not given in full)      128
6  CO/N=C1/CCN(c2c(F)cc3c(=O)c(C(=O)O)cn(C4CC4)c3c2F)CC1(C)CN (stereo not given)       64
7  CO/N=C1/CCN(c2nc3c(cc2F)c(=O)c(C(=O)O)cn3C2CC2)CC1(C)CN (stereo not given)      0.5
8  CCO/N=C1/CCN(c2nc3c(cc2F)c(=O)c(C(=O)O)cn3-c2ccc(F)cc2F)CC1(C)CN (stereo not given)       64
9  CCn1cc(C(=O)O)c(=O)c2cc(F)c(N3CC/C(=N/OC)C(C)(CN)C3)c(F)c21 (stereo not given)       64

* * *

experiment: Cytotoxicity against african green monkey Vero cells after 48 hrs by CPE assay; type: cell-based; conditions: chlorocebus sabaeus
reported.metric: CC50 at 48 h (µg/mL)

compound	scale.unit	lt.gt.eq	reading
CCO/N=C1/CCN(c2c(F)cc3c(=O)c(C(=O)O)cn(CC)c3c2F)CC1(C)CN (stereo not drawn)	µg/mL	=	78.8
CCn1cc(C(=O)O)c(=O)c2cc(F)c(N3CC/C(=N/OC)C(C)(CN)C3)c(F)c21 (stereo not drawn)	µg/mL	=	315
C[C@H]1COc2c(N3CCN(C)CC3)c(F)cc3c(=O)c(C(=O)O)cn1c23.C[C@H]1COc2c(N3CCN(C)CC3)c(F)cc3c(=O)c(C(=O)O)cn1c23.O [LEVOFLOXACIN]	µg/mL	>	1000
CO/N=C1/CCN(c2c(F)cc3c(=O)c(C(=O)O)cn4c3c2OC[C@@H]4C)CC1(C)CN (stereo partly drawn)	µg/mL	=	177
CO/N=C1/CCN(c2nc3c(cc2F)c(=O)c(C(=O)O)cn3C2CC2)CC1(C)CN (stereo not drawn)	µg/mL	=	177
CCO/N=C1/CCN(c2c(F)cc3c(=O)c(C(=O)O)cn(C4CC4)c3c2F)CC1(C)CN (stereo not drawn)	µg/mL	=	62.5
CCO/N=C1/CCN(c2nc3c(cc2F)c(=O)c(C(=O)O)cn3-c2ccc(F)cc2F)CC1(C)CN (stereo not drawn)	µg/mL	=	78.8
CCO/N=C1/CCN(c2c(F)cc3c(=O)c(C(=O)O)cn(CCF)c3c2F)CC1(C)CN (stereo not drawn)	µg/mL	=	157

* * *

system: Pseudomonas aeruginosa; assay: Antibacterial activity against Pseudomonas aeruginosa 17 after 18 to 24 hrs by agar dilution method; format: functional
reported.metric: MIC (µg/mL)

                                    compound  reading
 0  CO/N=C1/CCN(c2c(F)cc3c(=O)c(C(=O)O)cn4c3c2OC[C@@H]4C)CC1(C)CN (some centres not stated)       32
 1  CCn1cc(C(=O)O)c(=O)c2cc(F)c(N3CC/C(=N/OC)C(C)(CN)C3)c(F)c21 (configuration not stated)       64
 2  CCO/N=C1/CCN(c2nc3c(cc2F)c(=O)c(C(=O)O)cn3C2CC2)CC1(C)CN (configuration not stated)       16
 3  CO/N=C1/CCN(c2nc3c(cc2F)c(=O)c(C(=O)O)cn3-c2ccc(F)cc2F)CC1(C)CN (configuration not stated)       32
 4  CO/N=C1/CCN(c2nc3c(cc2F)c(=O)c(C(=O)O)cn3C2CC2)CC1(C)CN (configuration not stated)        8
 5  CO/N=C1/CCN(c2c(F)cc3c(=O)c(C(=O)O)cn(CCF)c3c2F)CC1(C)CN (configuration not stated)       64
 6  CCO/N=C1/CCN(c2nc3c(cc2F)c(=O)c(C(=O)O)cn3-c2ccc(F)cc2F)CC1(C)CN (configuration not stated)      128
 7  CCO/N=C1/CCN(c2c(F)cc3c(=O)c(C(=O)O)cn(CCF)c3c2F)CC1(C)CN (configuration not stated)      128
 8  CCO/N=C1/CCN(c2c(F)cc3c(=O)c(C(=O)O)cn(C4CC4)c3c2F)CC1(C)CN (configuration not stated)       16
 9  CCO/N=C1/CCN(c2c(F)cc3c(=O)c(C(=O)O)cn(CC)c3c2F)CC1(C)CN (configuration not stated)      128
10  C[C@H]1COc2c(N3CCN(C)CC3)c(F)cc3c(=O)c(C(=O)O)cn1c23.C[C@H]1COc2c(N3CCN(C)CC3)c(F)cc3c(=O)c(C(=O)O)cn1c23.O     0.25
11  CO/N=C1/CCN(c2c(F)cc3c(=O)c(C(=O)O)cn(C4CC4)c3c2F)CC1(C)CN (configuration not stated)       16

* * *

Quick reference for CC50 at 48 h among some compounds
assay: Cytotoxicity against african green monkey Vero cells after 48 hrs by CPE assay; format: cell-based; conditions: chlorocebus sabaeus
reported.metric: CC50 at 48 h (µg/mL)

>>> df
                                   compound  reading
0  CO/N=C1/CCN(c2c(F)cc3c(=O)c(C(=O)O)cn(C4CC4)c3c2F)CC1(C)CN (centres undefined)     88.4
1  CO/N=C1/CCN(c2c(F)cc3c(=O)c(C(=O)O)cn(CCF)c3c2F)CC1(C)CN (centres undefined)      315
2  CO/N=C1/CCN(c2nc3c(cc2F)c(=O)c(C(=O)O)cn3-c2ccc(F)cc2F)CC1(C)CN (centres undefined)     88.4
3  CCO/N=C1/CCN(c2nc3c(cc2F)c(=O)c(C(=O)O)cn3C2CC2)CC1(C)CN (centres undefined)     44.2

* * *

tested on: Staphylococcus epidermidis; assay: Antibacterial activity against Staphylococcus epidermidis ATCC 12228 after 18 to 24 hrs by agar dilution method; format: functional
reported.metric: MIC (µg/mL)

>>> print(df.to_string())
                                   compound  scale_unit  reading
0  CCn1cc(C(=O)O)c(=O)c2cc(F)c(N3CC/C(=N/OC)C(C)(CN)C3)c(F)c21 (stereo not drawn)       µg/mL        2
1  CO/N=C1/CCN(c2nc3c(cc2F)c(=O)c(C(=O)O)cn3-c2ccc(F)cc2F)CC1(C)CN (stereo not drawn)       µg/mL        2
2  CO/N=C1/CCN(c2c(F)cc3c(=O)c(C(=O)O)cn4c3c2OC[C@@H]4C)CC1(C)CN (stereo partly drawn)       µg/mL        2
